# System: Vero E6 infected with SARS-CoV-2
# experimental.details: morphology score (similarity to uninfected cells); higher = more like uninfected cells
# condition.summary: 24 h
Kindly supply the reported morphology score values for the records listed here.
Numbers only.

compound: CCOC(=O)OC(C)OC(=O)[C@@H]1N2C(=O)[C@@H](NC(=O)[C@H](N)c3ccccc3)[C@H]2SC1(C)C (some centres not stated) [bacampicillin] (10 µM)
morphology score: -0.0144

Count: 2. Required value per item: morphology score.
1. COc1cc2nc(N3CCCN(C)CC3)nc(NC3CCN(Cc4ccccc4)CC3)c2cc1OC (0.833333 µM)
2. CCC(=O)NS(=O)(=O)c1ccc(-c2c(-c3ccccc3)noc2C)cc1 [parecoxib] (10 µM)

1. 0.456
2. 0.0867

Count: 4. Required value per item: morphology score.
1. Cc1ccc(NC(=O)c2ccc(CN3CCN(C)CC3)cc2)cc1Nc1nc(-c2cccnc2)cs1 [masitinib] (10 µM)
2. CN1CCN(CC/C=C2/c3ccccc3Sc3ccc(S(=O)(=O)N(C)C)cc32)CC1 [thiothixene] (10 µM)
3. Cc1cc(OCCCS(C)(=O)=O)cc(C)c1-c1cccc(COc2ccc3c(c2)OC[C@H]3CC(=O)O)c1 (10 µM)
4. O=C(O)c1cc2occc2[nH]1 (10 µM)

1. 0.757
2. 0.381
3. 0.0278
4. -0.103

====

Kindly supply the reported morphology score values for the records listed here.
# Tested on: Vero E6 infected with SARS-CoV-2
# experimental.details: morphology score (similarity to uninfected cells); higher = more like uninfected cells
# condition.summary: 24 h
Give bare numbers.

A selection of reference data follows.
molecule: COc1cc(Br)c(S(=O)(=O)Nc2ccc(C(F)(F)F)c(O[C@@H]3CCN(C)C3)c2)cc1OC (10 µM)
experimental.endpoint: morphology score
recorded.value: 0.024

molecule: CCCCC/N=c1\ccn(Cc2ccccc2)c2ccccc12 (10 µM)
experimental.endpoint: morphology score
recorded.value: 0.0295

molecule: CCOC(=O)Nc1ccc2c(c1)N(C(=O)CN(CC)CC)c1ccccc1CC2 (10 µM)
experimental.endpoint: morphology score
recorded.value: 0.0358

molecule: C=CCN1CCc2nc(N)sc2CC1 [talipexole] (10 µM)
experimental.endpoint: morphology score
recorded.value: -0.1

molecule: NC(=O)c1ccc2[nH]ccc2c1 (10 µM)
experimental.endpoint: morphology score
recorded.value: 0.192

molecule: Cn1c(C#N)ccc1-c1ccc2c(c1)C(C)(C)OC(=S)N2 [tanaproget] (10 µM)
experimental.endpoint: morphology score
recorded.value: 0.0429

Count: 5. Required value per item: morphology score.
1. Cc1cc2c(s1)Nc1ccccc1N=C2N1CCN(C)CC1 [olanzapine] (10 µM)
2. Cc1c(N)nc([C@H](CC(N)=O)NC[C@H](N)C(N)=O)nc1C(=O)N[C@H](C(=O)N[C@H](C)[C@@H](O)[C@H](C)C(=O)N[C@H](C(=O)NCCc1nc(-c2nc(C(=O)NCCCNCCCCN)cs2)cs1)[C@@H](C)O)[C@@H](O[C@@H]1O[C@@H](CO)[C@@H](O)[C@H](O)[C@@H]1O[C@@H]1O[C@H](CO)[C@@H](O)[C@H](OC(N)=O)[C@@H]1O)c1cnc[nH]1 [bleomycetin] (0.833333 µM)
3. Cc1cccc(C)c1OCC(=O)N[C@@H](Cc1ccccc1)[C@@H](O)C[C@H](Cc1ccccc1)NC(=O)[C@H](C(C)C)N1CCCNC1=O [Lopinavir] (10 µM)
4. CN(C)C(=O)Oc1cc(OC(=O)N(C)C)cc(C(O)CNC(C)(C)C)c1 (stereo not drawn) [bambuterol] (10 µM)
5. O=c1[nH]nc2c3c(cccc13)N=C(CN1Cc3ccccc3C1)N2 (10 µM)

[-0.0599, 0.128, 0.184, -0.145, 0.219]

Where do these numbers come from? They come from the supplement of paper PMC13380429.
